This listing pairs compounds with measured TGI.
Tested on: RPMI-8226 leukemia
Test: NCI tumour cell line growth inhibition, 48 h
assay-metric: TGI (µM)

compound=O=S(=O)([O-])[O-].[Cl-].[NH2-].[NH2-].[NH2-].[NH2-].[Ru+3].c1ccc(-c2cccnc2)cc1 measured_on="RPMI-8226 leukemia" assay_metric=TGI units_of_measure=µM inequality_sign=> reading=100
compound=CNS(=O)(=O)NN(C)S(=O)(=O)c1ccc(Cl)cc1 measured_on="RPMI-8226 leukemia" assay_metric=TGI units_of_measure=µM inequality_sign=> reading=100
compound=CSc1ccc(-c2cc(-c3ccc(NC(=O)CCCN4CCCC4)cc3)nc(-c3ccc(NC(=O)CCCN4CCCC4)cc3)c2)cc1 measured_on="RPMI-8226 leukemia" assay_metric=TGI units_of_measure=µM inequality_sign== reading=4.56
compound="O=C1c2ccccc2C(=O)c2c1ccc1c2N=C(c2ccc(F)cc2)CC(c2ccc(Cl)c(Cl)c2)N1 (centres undefined)" measured_on="RPMI-8226 leukemia" assay_metric=TGI units_of_measure=µM inequality_sign== reading=19.3

###

TGI overview
Test system: KM12 colon
Assay: NCI tumour cell line growth inhibition, 48 h
assay-metric: TGI (µM)

molecule="CCCCCCCCCCCCCCCC(=O)OCC1OC(n2cnc3c(=S)nc(N)[nH]c32)C(OC(=O)CCCCCCCCCCCCCCC)C1OC(=O)CCCCCCCCCCCCCCC (centres undefined)" inequality_sign=> reading=50
molecule=CO/C(=N\N=C\c1ccc(Cl)cc1Cl)c1ccncc1 inequality_sign=> reading=10
molecule=CC/C=C\C/C=C\C[C@H](O)C/C=C1/C(=O)C=C[C@H]1C/C=C\CCC(=O)OC inequality_sign=> reading=8.25
molecule=CCOC(=O)c1c2c(n(-c3ccc(OC)cc3)c1C)C(=O)C(=O)c1ccccc1-2 inequality_sign== reading=3.61
molecule=Cc1cc(=O)n2nc(CSc3nnc(N)s3)sc2n1 inequality_sign=> reading=100
molecule=O=C(/C=C/c1ccc(-c2ccccc2)cc1)NCc1ccc(C(=O)NCCc2c[nH]c3ccccc23)cc1 inequality_sign=> reading=100
molecule=CNc1nc(C)c(-c2nc(Nc3cccc(S(N)(=O)=O)c3)ncc2F)s1 inequality_sign== reading=4.43
molecule=C=CC(C)(C)N[C@@H](C(=O)N1CCC[C@H]1c1nc(-c2nc(C(=O)OCC=C(C)C)c(C)o2)c(C)o1)C(C)C inequality_sign== reading=60.3
molecule=CNC(=O)c1c(NC(=O)c2cccc(C(F)(F)F)c2)sc2c1CCC(=O)C2 inequality_sign== reading=1.96

###

Tested on: 786-0 renal
Assay: NCI tumour cell line growth inhibition, 48 h
Overview of recorded TGI for various compounds
assay-metric: TGI

compound=Cc1cc2ccccc2n1CC(=O)N1CCCC1 measured_on="786-0 renal" reading="> 100 µM"
compound=O=C(Cn1c(=O)c(-c2ccccc2)nc2ccccc21)c1cccnc1 measured_on="786-0 renal" reading="> 100 µM"
compound=CCNc1c(C(=O)N(CC)CC)c(=O)[nH]c2ncccc12 measured_on="786-0 renal" reading="> 100 µM"
compound="OCC(Cn1cncn1)(c1ccc(F)cc1F)n1cncn1 (stereo unspecified)" measured_on="786-0 renal" reading="> 100 µM"
compound=C=CC(C)(C)N[C@@H](C(=O)N1CCC[C@H]1c1nc(-c2nc(C(=O)OCC=C(C)C)c(C)o2)c(C)o1)C(C)C measured_on="786-0 renal" reading="44.5 µM"
compound=CC1=C(C)CC2(SC1)C(=O)c1ccccc1C2=O measured_on="786-0 renal" reading="> 100 µM"
compound=CN1C/C(=C\c2ccc(Cl)cc2)C(=O)/C(=C/c2ccc(Cl)cc2)C1 measured_on="786-0 renal" reading="1.26 µM"
compound=S=c1nc2[nH]c3ccc(Br)cc3c2n[nH]1 measured_on="786-0 renal" reading="> 100 µM"
compound="CCOC(=O)C(=O)C1C(=O)Nc2ccccc21 (stereo unspecified)" measured_on="786-0 renal" reading="> 100 µM"
compound="OCC(O)C1OC2CC1Nc1ccccc1N2 (stereo unspecified)" measured_on="786-0 renal" reading="> 100 µM"
compound=O=C(Nc1c(Cl)cc([N+](=O)[O-])cc1Cl)C(=O)C1C(=O)NC(=S)NC1=O measured_on="786-0 renal" reading="> 100 µM"

###

Tested on: SN12C renal
Test: NCI tumour cell line growth inhibition, 48 h
assay-metric: TGI

compound=O=[N+]([O-])c1cc(O)c(O)cc1-c1cn2ccsc2n1 reading="> 100 µM"
compound="Nc1nc2c(c3ncccc13)C(c1ccc(Cl)c(Cl)c1)Cc1ncccc1-2 (stereo unspecified)" reading="24.8 µM"
compound=Cn1ccnc1C(c1nccn1C)C(C)(C)[N+](=O)[O-] reading="> 100 µM"
compound="O=C(Nc1nnc(-c2ccccc2)o1)C(SC(=S)N1CCOCC1)c1ccccc1 (stereo unspecified)" reading="> 100 µM"
compound=CCN(CC)c1ccc(N=C2C=C(C(=O)Nc3ccc(S(C)(=O)=O)cc3)C(=O)c3ccccc32)c(C)c1 reading="> 100 µM"
compound="CSc1nc(NC2OCC(O)C(O)C2O)c(N)c(=O)n1C (stereo unspecified)" reading="> 100 µM"

###

Tested on: U251 CNS
Test: NCI tumour cell line growth inhibition, 48 h
Items are presented alongside their recorded TGI.
assay-metric: TGI

compound=c1cc(C2CCCCC2)ccc1OCCCCCCN1CCNCC1 assay_metric=TGI reading="3.17 µM"
compound="COc1ccc(/C=C2\\CC3C4CC=C5C[C@@H](O)CC[C@]5(C)C4CC[C@]3(C)\\C2=N\\O)cc1OC (some centres undefined)" assay_metric=TGI reading="> 100 µM"
compound=Cc1cc(=O)c2cc(N=Cc3ccc([N+](=O)[O-])o3)ccc2o1 assay_metric=TGI reading="> 100 µM"
compound=CS(=O)(=O)OCCN1CCN(C(=O)c2cccc3c(Nc4ccc(S(N)(=O)=O)cc4)c4ccccc4nc23)CC1 assay_metric=TGI reading="> 100 µM"
compound="CC(=O)O[C@H]1CC[C@@]2(C)C(CC[C@]3(C)C2CC[C@]2(C)Oc4c(C)cc(O)cc4C[C@@H]23)C1(C)C (some centres undefined)" assay_metric=TGI reading="7.96 µM"
compound=CC(C)(C)n1c(=O)n(C(=O)C(Cl)(Cl)Cl)n(C(=O)C(Cl)(Cl)Cl)c1=O assay_metric=TGI reading="> 100 µM"
compound=COc1ccc(Nc2ccnc(NCCNc3ccnc4cc(Cl)ccc34)n2)cc1 assay_metric=TGI reading="5.22 µM"
compound=O=c1[nH]c2ccccc2nc1/C=C(\O)C(F)F assay_metric=TGI reading="> 100 µM"
compound=COc1ccc(S(=O)(=O)N/N=C/CN2C(=O)c3ccccc3C2=O)cc1OC assay_metric=TGI reading="> 100 µM"

###

Test system: HCT-116 colon
Assay: NCI tumour cell line growth inhibition, 48 h; in the data active = GI50 below about 0.43 µM; inactive = the rest
Outcome codes: yes (1) for active, no (0) for inactive

chemical_string=Cc1nc2cncc(C#Cc3cncc(C(=O)Nc4ccc(CN5CCN(C)CC5)c(C(F)(F)F)c4)c3)c2nc1C measured_on="HCT-116 colon" discrete_label="yes (1)"
chemical_string=C[C@]12CC/C(=N\N)C[C@@H]1CC[C@@H]1[C@@H]2CC[C@]2(C)/C(=N/N)CC[C@@H]12 measured_on="HCT-116 colon" discrete_label="no (0)"
chemical_string=CN(C)/C=C/c1nnnn1-c1ccc(Cl)cc1 measured_on="HCT-116 colon" discrete_label="no (0)"
chemical_string=O=C(Cn1c(=O)c(-c2ccccc2)nc2ccccc21)c1cccnc1 measured_on="HCT-116 colon" discrete_label="no (0)"
chemical_string=O=[N+]([O-])c1cc(O)c(O)cc1-c1cn2ccsc2n1 measured_on="HCT-116 colon" discrete_label="no (0)"
chemical_string=Nc1ccc(-c2nc3ccccc3[nH]2)c(O)c1 measured_on="HCT-116 colon" discrete_label="no (0)"
chemical_string=C=C1C(=O)O[C@H]2[C@H]1CC/C(CNS(=O)(=O)c1ccc3ccccc3c1)=C\CC[C@@]1(C)O[C@@H]21 measured_on="HCT-116 colon" discrete_label="no (0)"
chemical_string=COc1cc(C(=O)/C=C/c2c(-c3ccc(F)cc3)nc3sc(C)cn23)cc(OC)c1OC measured_on="HCT-116 colon" discrete_label="no (0)"
chemical_string=O=C(Nc1ccc(Cl)cc1)c1cc2c(cc1O)[nH]c1ccccc12 measured_on="HCT-116 colon" discrete_label="no (0)"

###

System: RPMI-8226 leukemia
Assay: NCI tumour cell line growth inhibition, 48 h
In this section, each of the molecules is paired with its reported TGI.
assay-metric: TGI (nM)

molecule=Nc1ccccc1NC(=O)CCCCCCC(=O)Nc1ccc2c(c1)/C(=C/c1ccc[nH]1)C(=O)N2 assay_metric=TGI inequality_sign=> reading=100000
molecule=O=C(c1ccccc1)c1c(C(F)(F)F)n([O-])c2cc(Cl)c(Cl)cc2[n+]1=O assay_metric=TGI inequality_sign== reading=1150
molecule=CN1C/C(=C\c2ccc(Cl)cc2)C(=O)/C(=C/c2ccc(Cl)cc2)C1 assay_metric=TGI inequality_sign== reading=895
molecule="O=c1[nH]c(=O)n(C2CC(O)C(CO)O2)cc1C(OCC(F)(F)F)OCC(F)(F)F (stereo not given)" assay_metric=TGI inequality_sign=> reading=100000
molecule="COc1ccc(C(O)c2cc3c(N)c(C(=O)Nc4cccc(Cl)c4C)sc3nc2C)cc1 (stereo not given)" assay_metric=TGI inequality_sign== reading=1850
